Experiment: Toxicity LD50 in mouse
Assay type: in vivo
Details: in vivo, PO
From the text: The compounds of the invention and the prior art product fenspiride of the prior art used as reference substance were subjected to various tests described in ARZNEIMITTEL-FORSCHUNG/DRUG RESEARCH 37 (II), 12, 1354-1355 (1987), especially
Reported LD50 values for a set of molecules

Check out these entries, answers already filled in.
[
  {
    "Molecule": "O=C1Cc2ccccc2N1CCN1CCC(OC(c2ccc(F)cc2)c2ccc(F)cc2)CC1",
    "LD50": "< 800 mg/kg"
  },
  {
    "Molecule": "O=C1c2cc(F)ccc2CN1CCN1CCC(OC(c2ccccc2)c2ccccc2)CC1",
    "LD50": "> 800 mg/kg"
  },
  {
    "Molecule": "O=C1Cc2ccccc2N1CCN1CCC(C(c2ccc(F)cc2)c2ccc(F)cc2)CC1",
    "LD50": "< 800 mg/kg"
  }
]

Prompt line: Entry under review: CC(C)C1C(=O)N(CCN2CCC(OC(c3ccccc3)c3ccccc3)CC2)c2ccccc21 (stereo not drawn) . Reported LD50?
Response line: > 800 mg/kg

Prompt line: Any idea what LD50 was measured for O=C1NCC2(CCN(CCc3ccccc3)CC2)O1 [Fenspiride, reference compound] ?
Response line: > 800 mg/kg

Prompt line: Any idea what its LD50 is? The molecule is `O=C1c2ccccc2CN1CCN1CCC(OC(c2ccccc2)c2ccccc2)CC1`
Response line: > 800 mg/kg
